Biological target: human prostanoid TP receptor (Homo sapiens)
Construct: expressed in transfected cells
Sequence (P21731 whole entry): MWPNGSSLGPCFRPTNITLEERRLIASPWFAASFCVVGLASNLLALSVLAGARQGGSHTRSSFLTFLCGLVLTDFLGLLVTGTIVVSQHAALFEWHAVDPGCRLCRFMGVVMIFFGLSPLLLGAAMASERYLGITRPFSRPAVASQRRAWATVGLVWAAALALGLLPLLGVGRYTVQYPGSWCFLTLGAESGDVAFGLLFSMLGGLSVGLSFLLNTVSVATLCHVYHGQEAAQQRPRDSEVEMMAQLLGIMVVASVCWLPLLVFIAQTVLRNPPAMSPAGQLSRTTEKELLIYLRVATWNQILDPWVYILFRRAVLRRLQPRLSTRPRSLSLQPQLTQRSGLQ
Test: FLIPR Ca2+ signaling antagonist assay, TP receptor stable cell line
Type: cell-based
Settings: HEK-293 EBNA stable cell line; standard agonist U-46619; NA = inactive (no antagonism or Kb 10,000 nM); PAg, Ag not defined
observation-type: TP (FLIPR) Kb

{"smiles-record": "CCC(CC)COc1ccc(-c2ccccc2)cc1Cn1nc(CCC(=O)O)cc1C", "data-value": "PAg"}
{"smiles-record": "Cc1cc(CCC(=O)O)nn1Cc1cc(Cl)ccc1OCc1ccc(Cl)cc1C(F)(F)F", "data-value": "Ag"}
{"smiles-record": "Cc1cc(CCC(=O)NS(=O)(=O)C(F)(F)F)nn1Cc1cc(Cl)ccc1OCc1ccc(Cl)cc1Cl", "data-value": "PAg"}
{"smiles-record": "Cc1cc(CCC(=O)O)nn1Cc1cc(Cl)ccc1OCC1CCCCC1", "data-value": "Ag"}

Field: next molecule
// recorded TP (FLIPR) Kb for "Cc1cc(CCC(=O)O)nn1Cc1cc(C(F)(F)F)ccc1OCc1ccc(Cl)cc1" : PAg

# credit: patent US9394284B2
